- assay.info: soluble on expression in E. coli; label from the status in PepcDB or PDB records
measured.endpoint: soluble on expression in E. coli

Some solved entries appear below for comparison.
MSHDVKELIEGLNEDLAGEYSAIIMYNHNAATVSGIYRQVLKPFFESEISDEQGHALYLAEKIKTLGGTPTTIPLRVKQAEDVREMLEYARQSEYETIKRYEKRKEQAANLNMTELVVKLEDMIADETNHMEELDRLLNDKAMVLN ... soluble
MNVERWAQALKEEYPRGLLGEREALVSLLVGKGLSHAEAVEVARALEAQGYAHFLPGERPRWFFSSRSLDLKALMRALDQEFPEFVGEGDEEEEALAFLAARLGDREVAREVLEAMRAAGYVERAYSPELARDRLFFRFPEALRLLG ... soluble
MSLQRFKFLMYQVVASDLDGTLLSPDHTLSPYAKETLKLLTARGINFVFATGRHHVDVGQIRDNLEIKSYMITSNGARVHDLDGNLIFAHNLDRDIASDLFGVVNDNPEIITNVYRDDEWFMNRHRPEEMRFFKEAVFNYALYEPGLLEPEGVSKVFFTCDSHEKLLPLEQAINARWGDRVNVSFSTLTCLEVMAGGVSKGHALEAVAKKLGYSLQDCIAFGDGMNDAEMLSMAGKGCIMGSAHQRLKDLHPELEVIGTNAEDAVPHYLRKLYLSEGHHHHHH ... soluble
MQAVNTTSGGAVGVDRKQYMFSMLSSQEVDQMYAQSYQKTLGEAKSAGVLDTSSADARRVKAIAQRLIPQTAAFRPDATGWNWEVNVVKSDELNANCGPGGKIIFYTGLIDKLKLTDDEIAAVMGHEIAHALREHGREAMSKAYGVQVASQIGALAGLGQESLQLANTGVDYLMTLPNSRANENEADLIGLELAARAGYNPEAAITLWQKMGRASGGASQPEFTSTHPSDSSRMANLQAAIPKVMPLYQQARRGKLEHHHHHH ... soluble
MGHHHHHHSHMDDIFTQCREGNAVAVRLWLDNTENDLNQGDDHGFSPLHWACREGRSAVVEMLIMRGARINVMNRGDDTPLHLAASHGHRDIVQKLLQYKADINAVNEHGNVPLHYACFWGQDQVAEDLVANGALVSICNKYGEMPVDKAKAPLRELLRERAEK ... not soluble

// soluble on expression in E. coli lookup, sequence = DLRGDLHMHTDYSEGAESLETMVEKAESMGYEYIAVTDHSRSQRIANGMDIETLKEQWKEIKSLSKRFRIKVLRGSEVEILKDGSLDYPDEILKELDVVVGAVHSGFAASEREMTGRIITALENKHLDILAHPSGRLLGKREAYAVNFGKVFEAAAENGKVMEINCQPSRLDLNDELIFRAKDYELKFCISTDSHSVSDLASMRYGLGQARRSWLEKEDIVNTYPYSRLKEVFKKLRD , result: not soluble

// soluble on expression in E. coli lookup, sequence = HRYGDEIDALVEAFNRMRESLAVAYQQQQGMLQAVRESEALLRAIARRIPNGGVWVVDTDGRYIMFEGSLVESLGLSGQEALGRMPGDLFGEPLADRLVGCYRLALAGGTLSEEIEYRERVLWIQFAPLEDEHGAVMAAVALGID , result: not soluble

// soluble on expression in E. coli lookup, sequence = MEKIKIIVASDSIGETAELVARAGISQFNPKQCKNELLRYPYIESFEDVDEVIQVAKDTNAIIVYTLIKPEMKQYMSEKVAEFQLKSVDIMGPLMDLLSASVEEKPYNEPGIVHRLDDAYFKKIDAIEFAVKYDDGKDPKGLPKADIVLLGISRTSKTPLSQYLAHKSYKVMNVPIVPEVTPPDGLYDIDPKKCIALKISEEKLNRIRKERLKQLGLGDTARYATEARIQEELNYFEEIVSEIGCPVIDVSQKAIEETANDIIHYIEQNKSKLEHHHHHH , result: not soluble
